target or test system: Cytochrome P450 2D6 (Homo sapiens, UniProt P10635)
Sequence (P10635 whole entry): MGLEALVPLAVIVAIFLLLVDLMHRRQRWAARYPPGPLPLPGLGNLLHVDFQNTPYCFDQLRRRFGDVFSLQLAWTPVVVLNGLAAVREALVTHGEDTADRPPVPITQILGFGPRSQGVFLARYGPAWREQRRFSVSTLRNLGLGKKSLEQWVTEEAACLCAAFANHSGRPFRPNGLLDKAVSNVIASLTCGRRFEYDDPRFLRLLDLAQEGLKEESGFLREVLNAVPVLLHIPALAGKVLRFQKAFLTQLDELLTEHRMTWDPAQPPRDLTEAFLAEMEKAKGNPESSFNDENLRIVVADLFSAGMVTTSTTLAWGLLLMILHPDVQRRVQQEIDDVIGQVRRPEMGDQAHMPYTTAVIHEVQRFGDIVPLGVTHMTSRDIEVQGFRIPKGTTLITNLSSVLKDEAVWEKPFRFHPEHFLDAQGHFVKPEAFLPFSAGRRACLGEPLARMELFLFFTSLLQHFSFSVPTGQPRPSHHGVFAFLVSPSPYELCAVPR
pIC50: −log10 of the molar value.
metric: pIC50

For this compound ( `COC[C@H]1CCCN1c1cc(NC(C)=O)nc(-n2nc(C)cc2C)n1` ), measured pIC50 is < 4.30

----------
Organism: Homo sapiens
procedure details: Selectivity ratio of Ki for human adenosine A1 receptor to Ki for human adenosine A2A receptor
Entries annotated with measured Ratio Ki
Respond with the number and no other words.

Sample records with Ratio Ki:
COc1cncc(-c2cc(NC(C)=O)nc(-n3nc(C)cc3C)n2)c1: 82
CC(=O)Nc1cc(N2CCCCC2)nc(-n2nc(C)cc2C)n1: 43
CC(=O)Nc1cc(N2CCC[C@@H]2COc2ccccn2)nc(-n2nc(C)cc2C)n1: 1.5
COC[C@H]1C[C@@H](OC)CN1c1cc(NC(C)=O)nc(-n2nc(C)cc2C)n1: 27
CCN(CC)c1cc(NC(C)=O)nc(-n2nc(C)cc2C)n1: 49

For this compound ( `COC[C@H]1CCCN1c1cc(NC(C)=O)nc(-c2cccs2)n1` ), measured Ratio Ki is 4.3

For this compound ( CC(=O)Nc1cc(N2CCCC2CO)nc(-n2nc(C)cc2C)n1 (single isomer, unassigned) ), measured Ratio Ki is 59

For this compound ( CCOCC1CCCN1c1cc(NC(C)=O)nc(-n2nc(C)cc2C)n1 (stereo not given) ), measured Ratio Ki is 9

For this compound ( `COC[C@@H]1CCCN1c1cc(NC(C)=O)nc(-c2ccccn2)n1` ), measured Ratio Ki is 2.5

For this compound ( `CC(=O)Nc1cc(N2CCCC2=O)nc(-n2nc(C)cc2C)n1` ), measured Ratio Ki is 76

----------
procedure details: Plasma concentration in rat at 10 mg/kg, po after 2 hrs
Type: ADME, organism-based
Set-up: dose 10 mg/kg, route oral
metric: concentration at 2 h
Don't forget the unit after the number, please.

For this compound ( `COC[C@H]1CCCN1c1cc(NC(C)=O)nc(-n2nc(C)cc2C)n1` ), measured concentration at 2 h is 1060 ng/mL

----------
target or test system: Adenosine receptor A2a (Homo sapiens)
Sequence (P29274 whole entry): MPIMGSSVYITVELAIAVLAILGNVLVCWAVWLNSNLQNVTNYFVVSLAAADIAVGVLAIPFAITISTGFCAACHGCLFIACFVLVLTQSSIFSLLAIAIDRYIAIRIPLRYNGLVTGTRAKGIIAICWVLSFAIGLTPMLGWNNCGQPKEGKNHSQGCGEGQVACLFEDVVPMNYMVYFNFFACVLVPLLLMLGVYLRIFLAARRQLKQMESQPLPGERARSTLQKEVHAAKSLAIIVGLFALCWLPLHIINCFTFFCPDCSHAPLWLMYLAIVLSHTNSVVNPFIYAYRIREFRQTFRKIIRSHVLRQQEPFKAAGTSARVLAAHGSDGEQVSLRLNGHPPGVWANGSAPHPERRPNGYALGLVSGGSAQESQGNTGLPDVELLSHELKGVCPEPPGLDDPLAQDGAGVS
metric: pKi
Keep in mind that pKi stands for -log10 of concentration in molar terms.

COC[C@@H]1CCCN1c1cc(NC(C)=O)nc(-c2cccs2)n1: 7.57
COC[C@H]1CCCN1c1cc(NC(=O)OC)nc(-n2nc(C)cc2C)n1: 7.72

Now look at this one.
For this compound ( `COC[C@H]1CCCN1c1cc(NC(C)=O)nc(-c2nccs2)n1` ), measured pKi is 7.70

----------
procedure details: Solubility in phosphate buffered saline
Assay type: physicochemical
metric: solubility

For this molecule ( `COC[C@H]1CCCN1c1cc(NC(C)=O)nc(-n2nc(C)cc2C)n1.Cl` ), measured solubility is > 6.7 mg/mL

----------
target or test system: Cytochrome P450 2C19 (Homo sapiens)
Sequence (P33261 whole entry): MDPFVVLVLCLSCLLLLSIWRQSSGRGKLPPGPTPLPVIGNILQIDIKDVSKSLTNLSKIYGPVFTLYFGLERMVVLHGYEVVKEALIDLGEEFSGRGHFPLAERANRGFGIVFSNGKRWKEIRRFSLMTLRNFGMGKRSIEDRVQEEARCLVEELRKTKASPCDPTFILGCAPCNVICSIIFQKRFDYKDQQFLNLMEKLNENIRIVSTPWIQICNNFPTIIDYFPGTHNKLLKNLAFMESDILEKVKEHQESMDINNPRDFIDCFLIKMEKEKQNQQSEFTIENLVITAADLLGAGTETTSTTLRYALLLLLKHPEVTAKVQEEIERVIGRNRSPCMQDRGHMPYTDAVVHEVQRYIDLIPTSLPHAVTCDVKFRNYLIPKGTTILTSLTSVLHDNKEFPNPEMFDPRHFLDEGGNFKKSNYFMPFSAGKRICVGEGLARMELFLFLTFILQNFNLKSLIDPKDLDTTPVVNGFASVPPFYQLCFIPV
procedure details: Inhibition of CYP2C19
Format: ADME
pIC50: −log10 of the molar value.
metric: pIC50

For this compound ( `COC[C@H]1CCCN1c1cc(NC(C)=O)nc(-n2nc(C)cc2C)n1` ), measured pIC50 is < 4.30

----------
Species: Homo sapiens
procedure details: Selectivity ratio of Ki for human adenosine A1 receptor to Ki for human adenosine A2A receptor
metric: Ratio Ki
Respond with the number and no other words.

Sample records with Ratio Ki:
COC[C@H]1CCCN1c1cc(NC(C)=O)nc(-c2nccs2)n1: 7.5
COC[C@H]1CCCN1c1cc(NC(C)=O)nc(-c2ccccn2)n1: 1.5
COC[C@H]1CCCN1c1cc(NC(=O)CC(C)C)nc(-n2nc(C)cc2C)n1: 2

For this molecule ( `COC[C@H]1CCCN1c1cc(NC(=O)OC)nc(-n2nc(C)cc2C)n1` ), measured Ratio Ki is 50

For this molecule ( `COC[C@@H]1CCCN1c1cc(NC(C)=O)nc(-c2ccc(C)o2)n1` ), measured Ratio Ki is 2

For this molecule ( `COC(=O)[C@H]1CCCN1c1cc(NC(C)=O)nc(-n2nc(C)cc2C)n1` ), measured Ratio Ki is 14

For this molecule ( `COC[C@H]1CCCN1c1cc(NC(C)=O)nc(-n2nc(C)cc2C)n1` ), measured Ratio Ki is 34

For this molecule ( `CC(=O)Nc1cc(N2CCC[C@H]2COc2ccccn2)nc(-n2nc(C)cc2C)n1` ), measured Ratio Ki is 28

For this molecule ( COCC1CCCN1c1cc(NC(C)=O)nc(-n2nc(C)cc2C)n1 (stereo not given) ), measured Ratio Ki is 35

For this molecule ( CC(=O)Nc1cc(N2CCCC2C)nc(-n2nc(C)cc2C)n1 (stereo not given) ), measured Ratio Ki is 37

----------
target or test system: Cytochrome P450 3A4 (Homo sapiens, UniProt P08684)
Sequence (P08684 whole entry): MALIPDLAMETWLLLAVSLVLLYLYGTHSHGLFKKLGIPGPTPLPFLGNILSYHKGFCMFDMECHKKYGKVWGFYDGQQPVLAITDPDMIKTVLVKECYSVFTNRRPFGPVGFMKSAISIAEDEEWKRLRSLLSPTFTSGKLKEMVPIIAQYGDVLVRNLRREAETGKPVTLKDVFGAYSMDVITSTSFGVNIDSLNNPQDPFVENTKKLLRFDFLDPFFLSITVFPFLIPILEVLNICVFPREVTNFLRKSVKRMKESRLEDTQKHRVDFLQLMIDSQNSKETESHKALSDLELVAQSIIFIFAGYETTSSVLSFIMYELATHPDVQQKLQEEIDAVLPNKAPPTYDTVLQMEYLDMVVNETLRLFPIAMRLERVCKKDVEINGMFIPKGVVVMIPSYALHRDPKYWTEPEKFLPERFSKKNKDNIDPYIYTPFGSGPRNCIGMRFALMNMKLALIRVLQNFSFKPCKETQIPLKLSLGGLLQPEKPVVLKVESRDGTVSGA
procedure details: Inhibition of CYP3A4
Assay type: ADME
metric: IC50

For this compound ( `COC[C@H]1CCCN1c1cc(NC(C)=O)nc(-n2nc(C)cc2C)n1` ), measured IC50 is > 50 µM

----------
procedure details: Drug level in rat brain at 3 mg/kg, po after 2 hrs
Assay type: ADME, organism-based
Design: dose 3 mg/kg, route oral
study conditions: read-out: Drug uptake
metric: concentration at 2 h (ng/g)
Reply with just the number (in ng/g).

For this compound ( `COC[C@H]1CCCN1c1cc(NC(C)=O)nc(-n2nc(C)cc2C)n1` ), measured concentration at 2 h is 34

----------
procedure details: Solubility at pH 7.4
Format: physicochemical
study conditions: buffer
metric: solubility (µg/mL)
Reply with just the number (in µg/mL).

For this compound ( `COC[C@H]1CCCN1c1cc(NC(C)=O)nc(-n2nc(C)cc2C)n1` ), measured solubility is 1000

----------
Organism: Homo sapiens
procedure details: Selectivity ratio of Ki for human adenosine A1 receptor to Ki for human adenosine A2A receptor
Entries annotated with measured Ratio Ki
Respond with the number and no other words.

Sample records with Ratio Ki:
COC[C@@H]1CCCN1c1cc(NC(C)=O)nc(-c2nccs2)n1: 23
CC(=O)Nc1cc(N2CCCC2)nc(-n2nc(C)cc2C)n1: 45

Now look at this one.
For this compound ( `COC[C@@H]1CCCN1c1cc(NC(C)=O)nc(-n2nc(C)cc2C)n1` ), measured Ratio Ki is 14

----------
Entries annotated with measured Ki
Sequence of the target: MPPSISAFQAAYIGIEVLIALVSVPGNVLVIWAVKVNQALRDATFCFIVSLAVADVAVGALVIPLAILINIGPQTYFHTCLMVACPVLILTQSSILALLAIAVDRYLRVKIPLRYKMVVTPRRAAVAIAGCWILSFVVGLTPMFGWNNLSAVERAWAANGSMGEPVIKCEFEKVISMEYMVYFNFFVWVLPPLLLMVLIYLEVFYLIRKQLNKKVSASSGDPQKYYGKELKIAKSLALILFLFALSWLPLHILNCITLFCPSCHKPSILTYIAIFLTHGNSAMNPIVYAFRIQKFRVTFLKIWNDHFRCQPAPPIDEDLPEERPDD
Don't forget the unit after the number, please.

Sample records with Ki:
CC(=O)Nc1cc(N2CCc3ccccc3C2)nc(-n2nc(C)cc2C)n1: 323 nM
COCC1CCCN1c1cc(NC(C)=O)nc(-n2nc(C)cc2C)n1 (stereo not given): 320 nM
CC(=O)Nc1cc(N2CCOCC2)nc(-n2nc(C)cc2C)n1: 8120 nM
COC[C@@H]1CCCN1c1cc(NC(C)=O)nc(-c2ccccn2)n1: 125 nM

Now look at this one.
For this compound ( `COC(=O)[C@H]1CCCN1c1cc(NC(C)=O)nc(-n2nc(C)cc2C)n1` ), measured Ki is 2930 nM

----------
Entries with their measured Ki, system Adenosine receptor A2a (Homo sapiens, UniProt P29274):
Reply with just the number (in nM).

COCC1CCCN1c1cc(NC(C)=O)nc(-n2nc(C)cc2C)n1 (stereo not given): 9
CC(=O)Nc1cc(-c2ccccc2O)nc(-n2nc(C)cc2C)n1: 1.9

For this molecule ( `COC[C@@H]1CCCN1c1cc(NC(C)=O)nc(-c2nccs2)n1` ), measured Ki is 15

For this molecule ( COCCC1CCCCN1c1cc(NC(C)=O)nc(-n2nc(C)cc2C)n1 (single isomer, unassigned) ), measured Ki is 275

----------
Target sequence: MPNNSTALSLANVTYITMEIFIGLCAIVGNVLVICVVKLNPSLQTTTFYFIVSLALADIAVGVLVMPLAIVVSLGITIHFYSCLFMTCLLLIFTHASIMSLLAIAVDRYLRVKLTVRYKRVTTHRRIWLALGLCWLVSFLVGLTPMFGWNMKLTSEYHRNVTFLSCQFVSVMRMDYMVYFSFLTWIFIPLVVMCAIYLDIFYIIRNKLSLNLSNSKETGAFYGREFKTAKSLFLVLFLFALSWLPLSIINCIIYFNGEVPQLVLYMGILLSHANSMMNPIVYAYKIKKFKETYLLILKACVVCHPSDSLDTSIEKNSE
metric: Ki (nM)
Reply with just the number (in nM).

For this molecule ( `COC[C@H]1CCCN1c1cc(NC(C)=O)nc(-n2nc(C)cc2C)n1` ), measured Ki is 19
